Molecular target: Cellular tumor antigen p53 (Homo sapiens) (UniProt P04637)
Sequence (P04637 whole entry, looked up): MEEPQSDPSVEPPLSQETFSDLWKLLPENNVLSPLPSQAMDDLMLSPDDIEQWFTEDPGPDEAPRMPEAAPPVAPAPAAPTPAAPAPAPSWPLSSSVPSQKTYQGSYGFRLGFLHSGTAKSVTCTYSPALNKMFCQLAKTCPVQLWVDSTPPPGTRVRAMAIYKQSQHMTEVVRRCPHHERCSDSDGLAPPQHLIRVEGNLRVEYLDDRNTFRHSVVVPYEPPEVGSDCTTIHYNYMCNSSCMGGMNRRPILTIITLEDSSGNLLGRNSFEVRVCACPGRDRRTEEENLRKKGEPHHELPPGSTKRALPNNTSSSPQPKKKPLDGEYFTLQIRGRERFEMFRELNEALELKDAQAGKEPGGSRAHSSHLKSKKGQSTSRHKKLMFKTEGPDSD
Experiment: TOX21_p53_BLA_p3_ratio: Tox21 HCT-116 p53 Agonism Beta-lactamase Assay, Ratio, Phase 3 (AID 2283596)
Results filed as inconclusive are left out. Activity calls are given as the source filed them. How the source made its calls: active means hit-call score of the fitted dose curve at least 0.9, where 1 is the maximum; inconclusive means response in the unintended direction; inactive means score below 0.9.
// one of active, inactive, no free text

>  <MOLECULE>
O=C(Cl)c1cccc(C(=O)Cl)c1

>  <DISCRETE LABEL>
inactive

$$$$
>  <MOLECULE>
CC1(C)CCC(C)(C)c2cc(C(=O)Nc3ccc(C(=O)O)cc3)ccc21

>  <DISCRETE LABEL>
active

$$$$
>  <MOLECULE>
CCCc1c(OCCCOc2ccc(OCC(=O)O)cc2)ccc(C(C)=O)c1O

>  <DISCRETE LABEL>
inactive

$$$$
>  <MOLECULE>
CC1=CCC(O)(C(C)C)CC1 (configuration not stated)

>  <DISCRETE LABEL>
inactive

$$$$
>  <MOLECULE>
CCCCCCCCCCCCCCCC(=O)O

>  <DISCRETE LABEL>
inactive

$$$$
>  <MOLECULE>
Cc1ncc([N+](=O)[O-])n1C

>  <DISCRETE LABEL>
inactive

$$$$
>  <MOLECULE>
COC(C)CCO (configuration not stated)

>  <DISCRETE LABEL>
inactive

$$$$
>  <MOLECULE>
CC(C)(C)c1n[nH]c(=S)n(N)c1=O

>  <DISCRETE LABEL>
inactive

$$$$
>  <MOLECULE>
C[C@H]1C[C@@H]2[C@H]([C@@H](O)C[C@@]3(C)[C@H]2CC[C@]3(O)C(=O)CO)[C@@]2(C)C=CC(=O)C=C12

>  <DISCRETE LABEL>
inactive

$$$$
>  <MOLECULE>
C[C@]12CC[C@H]3[C@@H](CCC4=CC(=O)CC[C@@]43C)[C@@H]1CC[C@@H]2C(=O)CO

>  <DISCRETE LABEL>
inactive

$$$$

Would you mind telling me which call this test gave O=S(=O)(O)c1cccc2c(S(=O)(=O)O)cccc12 ?
inactive

Would you mind telling me which call this test gave CCCCCCCCCOC(C)=O ?
inactive

====

Molecular target: Nuclear respiratory factor 1 (Homo sapiens)
Test: ATG_NRF1_CIS: Attagene CIS-FACTORIAL HepG2 Assay for human Nuclear Respiratory Factor 1 (NRF1) Orphan Gene (AID 2282987)
Details: HepG2 NRF1 cis-element reporter, Attagene multiplex; actives raise or lower the signal
The source made the active and inactive calls. How the source made its calls: active means hit-call score of the fitted dose curve at least 0.9, where 1 is the maximum; inactive means score below 0.9.
// one of t (active), f (inactive), no free text

>  <MOLECULE>
CCOC(=S)SSC(=S)OCC

>  <SYSTEM>
Nuclear respiratory factor 1 (Homo sapiens)

>  <DISCRETE LABEL>
f

$$$$
>  <MOLECULE>
CNCCCC12CCC(c3ccccc31)c1ccccc12

>  <SYSTEM>
Nuclear respiratory factor 1 (Homo sapiens)

>  <DISCRETE LABEL>
f

$$$$
>  <MOLECULE>
Cc1ccc(S)cc1

>  <SYSTEM>
Nuclear respiratory factor 1 (Homo sapiens)

>  <DISCRETE LABEL>
f

$$$$

Would you mind telling me which call this test gave CCCCOCCOCCSC#N ?
f

Would you mind telling me which call this test gave COC(=O)OC ?
f

Would you mind telling me which call this test gave CCCc1ccccc1O ?
f

Would you mind telling me which call this test gave CC(CCO)CCCC(C)(C)O (stereo not given) ?
f

Would you mind telling me which call this test gave Cc1ccc(C=O)s1 ?
f

Would you mind telling me which call this test gave CCC(=O)OCc1ccccc1 ?
f

Would you mind telling me which call this test gave O=c1[nH]c(=O)n([C@H]2CCCO2)cc1F ?
f

Would you mind telling me which call this test gave COC(=O)C1=C(C)NC(C)=C(C(=O)OCCN(C)Cc2ccccc2)C1c1cccc([N+](=O)[O-])c1 (stereo not given) ?
t

Would you mind telling me which call this test gave CCN(CC)CCOC(=O)c1ccc(N)cc1 ?
f

Would you mind telling me which call this test gave CC(C)=CCC[C@](C)(O)[C@@H]1CC=C(C)CC1 ?
f

Would you mind telling me which call this test gave C/C=C(\C)C(=O)OCc1ccccc1 ?
f

Would you mind telling me which call this test gave OCCCCCO ?
f
